Target: cloned human V1a receptor (Homo sapiens)
Construct: host or cells: human brain astrocytoma 1321N1 cells
Sequence (P37288 whole entry): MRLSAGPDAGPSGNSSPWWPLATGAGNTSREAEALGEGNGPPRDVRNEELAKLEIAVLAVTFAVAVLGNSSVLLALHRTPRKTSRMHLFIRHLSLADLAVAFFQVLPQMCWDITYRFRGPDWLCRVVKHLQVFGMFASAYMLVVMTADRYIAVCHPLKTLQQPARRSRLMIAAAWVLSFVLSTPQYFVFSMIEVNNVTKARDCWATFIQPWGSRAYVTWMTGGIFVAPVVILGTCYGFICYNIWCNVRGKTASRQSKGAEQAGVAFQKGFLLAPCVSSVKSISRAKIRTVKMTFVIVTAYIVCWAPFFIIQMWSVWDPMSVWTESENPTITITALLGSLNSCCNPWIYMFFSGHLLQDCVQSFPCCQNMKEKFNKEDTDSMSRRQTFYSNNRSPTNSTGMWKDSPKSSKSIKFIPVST
Test: in vitro functional calcium mobilisation assay (FLIPR), antagonist activity, 1321N1 cells, 250 pM AVP
Assay type: cell-based
Conditions: functional pKi derived from pIC50 (Equation 1), FLIPR Ca2+ mobilisation, 1321N1 cells expressing cloned human V1a receptor, read-out: Mean fpKi (Human V1a) (converted)
Description: The primary assay which may be used to determine the ability of the compounds of formula (1) to inhibit the vasopressin V1a receptor is an in vitro functional calcium mobilisation assay (FLIPR) that measures antagonist activity at a cloned human V1a receptor. The assay is described below. […]
measured-property: log10 of Ki (log10 of the value in nM)
Parameter value (number): base-10 log of Ki in nM.

molecule: COc1cccc(N2CCC(C(=O)N3CCc4nc(C)[nH]c4-c4cc(Cl)ccc43)CC2)c1
reading: 0.40
//
molecule: O=C(C1CCN(c2cccc(-c3ccccc3)c2)CC1)N1Cc2cccn2Cc2ccccc21
reading: 2.18
//
molecule: Cc1cccc(N2CCC(C(=O)N3CCc4nc(N5CCOCC5)[nH]c4-c4ccccc43)CC2)n1
reading: 1.11
//
molecule: Cc1ccc(N2CCC(C(=O)N3CCc4nc(C5CC5)[nH]c4-c4cc(C)ccc43)CC2)nc1
reading: 0.18
//
molecule: Cc1ccc2c(c1)-c1[nH]c(N3CCOCC3)nc1CCN2C(=O)C1CCN(c2cnccc2C)CC1
reading: 1.14

# molecule `CCc1ccc(N2CCC(C(=O)N3CCc4nc(C)[nH]c4-c4cc(Cl)ccc43)CC2)cc1` ; its log10 of Ki = 0.50

Please fill in: log10 of Ki reported for `Cc1cccnc1N1CCC(C(=O)N2CCc3nc(N4CCOCC4)[nH]c3-c3cc(F)ccc32)CC1` = 0.40

Per the record, `NCc1ccc(N2CCC(C(=O)N3Cc4cccn4Cc4ccccc43)CC2)cc1` has log10 of Ki of 1.99

Lab note: measured log10 of Ki of `O=C(C1CCN(c2ccccn2)CC1)N1CCc2nc(N3CCOCC3)[nH]c2-c2ccccc21` was 1.26

Entry `CCn1ncc2c1Nc1cc(Cl)ccc1N(C(=O)C1CCN(c3cccc(C)n3)CC1)C2` ; log10 of Ki = 0.08

Reported log10 of Ki of `Cc1ccc2c(c1)Nc1c(cnn1C)CN2C(=O)C1CCN(c2ncccn2)CC1` : 2.18

For reference, reported log10 of Ki for `Cc1ccc(N2CCC(C(=O)N3CCc4nc(C5CCOCC5)[nH]c4-c4cc(C)ccc43)CC2)nc1` stands at 0.30

log10 of Ki reading for `Cc1cccc(N2CCC(C(=O)N3Cc4cccn4Cc4ccccc43)CC2)c1` : 0.50
